assay: Proton dissociation constants (pKa) of proligands by UV/Vis spectrophotometric titration; format: physicochemical; details: proligand, phenolic OH; I = 0.1 M (KCl); t = 25 °C; water; read-out: pKa (H2L+)
pKa: recorded values
Please reply with the number alone, leaving off any unit.

1. C[N+](C)(C)Cc1ccc(O)c(/C=N/NC(=S)Nc2ccccc2)c1 [[H2L^Ph]Cl] = 7.03
2. CCNC(=S)N/N=C/c1cc(C[N+](C)(C)C)ccc1O [[H2L^Et]Cl] = 7.31
3. C[N+](C)(C)Cc1ccc(O)c(/C=N/NC(N)=S)c1 [[H2L^H]Cl] = 7.46

// below: pKa requested for another molecule
Item CNC(=S)N/N=C/c1cc(C[N+](C)(C)C)ccc1O [[H2L^Me]Cl] has what recorded pKa?
7.54
